- experimental.system: PD-1/PD-L1 interaction (Homo sapiens)
- Construct: Tag1 (undisclosed kit tag)
- protocol.summary: PD-1/PD-L1 Homogenous Time-Resolved Fluorescence (HTRF) binding assay (CisBio kit)
- settings: Biochemical PD1/PD-L1 inhibition
pIC50: −log10 of the molar value.
Let's look at some molecules and their measured pIC50.

// solved cases for pIC50 follow
COC(=O)c1cc(CNCCNC(C)=O)c2c(c1OCc1cccc(-c3ccccc3)c1C)CCC2	< 6.30
Cc1c(COc2ccc(CNC3(C(=O)O)CC3)c3c2CCC3)cccc1-c1ccccc1	6.30 to 7.00
Cc1c(COc2cc(OCc3cncc(F)c3)c(CN3CCCC[C@H]3C(=O)O)c3c2CCC3)cccc1-c1ccccc1	> 7.00
CC(=O)NCCNCc1c(OCc2cccc(C(N)=O)c2)cc(OCc2cccc(-c3ccccc3)c2C)c2c1CCC2	> 7.00
N#Cc1cncc(COc2cc(OCc3cccc(-c4ccccc4)c3C#N)c3c(c2CN2CCCC[C@H]2C(=O)O)CCC3)c1	> 7.00

**Query** Looking for the measured pIC50 of CC(=O)NCCCCCC(=O)NCc1c(OCc2cccc(C#N)c2)cc(OCc2cccc(-c3ccccc3)c2C)c2c1CCC2 , can you help?
**Result** < 6.30

**Query** Looking for the measured pIC50 of COc1cc(OCc2cccc(-c3ccccc3)c2C)c2c(c1CN1CCOC[C@H]1C(=O)O)CCC2 , can you help?
**Result** > 7.00

**Query** Looking for the measured pIC50 of Cc1c(COc2cc(OCc3cncc(C#N)c3)c(CN3CCOC[C@H]3C(=O)O)c3c2CCC3)cccc1-c1ccccc1 , can you help?
**Result** > 7.00

**Query** Looking for the measured pIC50 of Cc1c(COc2cc(OCc3cncc(C#N)c3)c(CN3CCCC[C@H]3C(=O)O)c3c2CCC3)cccc1-c1ccccc1 , can you help?
**Result** > 7.00

**Query** Looking for the measured pIC50 of CC(=O)NCCNCc1c(OCc2cccc(C#N)c2)cc(OCc2cccc(-c3ccccc3)c2C)c2c1CCC2 , can you help?
**Result** > 7.00

**Query** Looking for the measured pIC50 of COc1cc(OCc2cccc(-c3ccc4c(c3)OCCO4)c2C)c2c(c1CN1C[C@H](O)C[C@H]1C(=O)O)CCC2 , can you help?
**Result** 6.30 to 7.00

**Query** Looking for the measured pIC50 of CC(=O)NCCNCc1c(OCc2ccc(C#N)cc2)cc(OCc2cccc(-c3ccccc3)c2C)c2c1CCC2 , can you help?
**Result** 6.30 to 7.00

**Query** Looking for the measured pIC50 of CC(=O)NCCNCc1ccc(OCc2cccc(-c3ccccc3)c2C)c2c1CCC2 , can you help?
**Result** < 6.30

----------
- experimental.system: PD-1/PD-L1 interaction (Homo sapiens)
- Construct: Tag1 (undisclosed kit tag)
- protocol.summary: PD-1/PD-L1 Homogenous Time-Resolved Fluorescence (HTRF) binding assay (CisBio kit)
- settings: Biochemical PD1/PD-L1 inhibition
readout.label: IC50

// solved cases for IC50 follow
N#Cc1cncc(COc2cc(OCc3cccc(-c4ccccc4)c3C#N)c3c(c2CN2C[C@H](O)C[C@H]2C(=O)O)CCC3)c1	< 100 nM
Cc1c(COc2ccc(CNC(C)CC(=O)O)c3c2CCC3)cccc1-c1ccccc1 (stereo not drawn)	> 500 nM

**Query** Looking for the measured IC50 of Cc1cc(CN2CCCC[C@H]2C(=O)O)c2c(c1OCc1cccc(-c3ccccc3)c1C)CCC2 , can you help?
**Result** 100 to 500 nM

**Query** Looking for the measured IC50 of Cc1c(COc2ccc(CN3CCCC[C@H]3C(=O)O)c3c2CCC3)cccc1-c1cccc2c1ccn2CCCN1CCC(F)(F)C1 , can you help?
**Result** > 500 nM

**Query** Looking for the measured IC50 of Cc1c(COc2cc(OCc3cccc(C#N)c3)c(CN3CCCC[C@H]3C(=O)O)c3c2CCC3)cccc1-c1ccccc1 , can you help?
**Result** < 100 nM

**Query** Looking for the measured IC50 of Cc1c(COc2cc(OCc3cccc(C(N)=O)c3)c(CN3CCCC[C@H]3C(=O)O)c3c2CCC3)cccc1-c1ccccc1 , can you help?
**Result** 100 to 500 nM

----------
Let's look at some molecules and their measured pIC50.
- experimental.system: PD-1/PD-L1 interaction (Homo sapiens)
- Construct: Tag1 (undisclosed kit tag)
- protocol.summary: PD-1/PD-L1 Homogenous Time-Resolved Fluorescence (HTRF) binding assay (CisBio kit)
- settings: Biochemical PD1/PD-L1 inhibition
pIC50: −log10 of the molar value.

**Query** Looking for the measured pIC50 of CC(=O)NCCNCc1c(OCc2cccc(C#N)c2)cc(OCc2cccc(-c3ccccc3C)c2C)c2c1CCC2 , can you help?
**Result** 6.30 to 7.00

**Query** Looking for the measured pIC50 of Cc1c(COc2cc(OCc3cncc(C#N)c3)c(CNC(CO)(CO)CO)c3c2CCC3)cccc1-c1ccccc1 , can you help?
**Result** > 7.00

**Query** Looking for the measured pIC50 of COc1cc(OCc2cccc(-c3ccccc3)c2C#N)c2c(c1CNC(CO)(CO)CO)CCC2 , can you help?
**Result** > 7.00

----------
- experimental.system: PD-1/PD-L1 interaction (Homo sapiens, UniProt Q9NZQ7)
- Construct: Tag1 (undisclosed kit tag)
- Sequence (Q9NZQ7 19-238 limits assumed): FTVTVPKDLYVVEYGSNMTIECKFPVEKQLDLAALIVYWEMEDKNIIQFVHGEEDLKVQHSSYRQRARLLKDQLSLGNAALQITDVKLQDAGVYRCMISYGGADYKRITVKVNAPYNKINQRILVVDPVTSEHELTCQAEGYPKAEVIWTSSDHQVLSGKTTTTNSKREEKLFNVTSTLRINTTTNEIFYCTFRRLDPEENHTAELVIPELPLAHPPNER
- protocol.summary: PD-1/PD-L1 Homogenous Time-Resolved Fluorescence (HTRF) binding assay (CisBio kit)
- settings: Biochemical PD1/PD-L1 inhibition
readout.label: IC50

// solved cases for IC50 follow
Cc1c(COc2ccc(CNC(CO)(CO)CO)c3c2CCC3)cccc1-c1ccccc1	100 to 500 nM
CC(=O)NCCNCc1cc(Cl)c(OCc2cccc(-c3ccccc3)c2C)c2c1CCC2	100 to 500 nM
CC(=O)NCc1c(OCc2cccc(C#N)c2)cc(OCc2cccc(-c3ccccc3)c2C)c2c1CCC2	> 500 nM
COc1cc(OCc2cccc(-c3ccccc3)c2C#N)c2c(c1CN1CCOC[C@H]1C(=O)O)CCC2	< 100 nM

**Query** Looking for the measured IC50 of COc1cc(OCc2cccc(-c3ccccc3)c2C#N)c2c(c1CNCC(=O)O)CCC2 , can you help?
**Result** < 100 nM

**Query** Looking for the measured IC50 of COc1cc(OCc2cccc(-c3ccccc3)c2C)c2c(c1CNCCNC(C)=O)CCC2 , can you help?
**Result** 100 to 500 nM

**Query** Looking for the measured IC50 of CC(=O)NCCNCc1cc(C)c(OCc2cccc(-c3ccccc3)c2C)c2c1CCC2 , can you help?
**Result** > 500 nM

**Query** Looking for the measured IC50 of Cc1c(COc2ccc(CN3CCCC[C@H]3C(=O)O)c3c2CCC3)cccc1-c1ccccc1 , can you help?
**Result** 100 to 500 nM

**Query** Looking for the measured IC50 of Cc1c(COc2cc(OCc3cccc(C#N)c3)c(CN(C)C)c3c2CCC3)cccc1-c1ccccc1 , can you help?
**Result** < 100 nM
